Entry source: patent US20240415914A1

assay: Stability of cannabinoid and Vitamin E components of Beverage 1 (AB White) stored at 8° C. and 21-25° C., LCMSMS over 570 days; assay type: physicochemical; conditions: beverage stored at 21-25° C., day 480
Catalogue of compounds with associated Stability in AB White, 21-25° C. (content by LCMSMS)
Kindly answer with a numeric value in µg/mL, unit omitted.

Would you please look over these solved cases?
| COMPOUND | MEASURED |
| --- | --- |
| CCCCCc1cc(O)c2c(c1)OC1(C)CCC3C1C2C3(C)C (stereo not drawn) | 0.510 |
| CCCCCc1cc(O)c2c(c1)OC(C)(C)[C@@H]1CCC(C)=C[C@@H]21 [D9 THC, delta-9-tetrahydrocannabinol, reference compound] | 11.2 |
| CCCc1cc(O)c2c(c1)OC(C)(C)[C@@H]1CCC(C)=C[C@@H]21 [THCV, delta-9-tetrahydrocannabivarin] | 3.30 |

Which Stability in AB White, 21-25° C. (content by LCMSMS) is listed for `C=C(C)[C@@H]1CCC(C)=C[C@H]1c1c(O)cc(CCCCC)c(C(=O)O)c1O` ? 1.63

Which Stability in AB White, 21-25° C. (content by LCMSMS) is listed for `CCCCCc1cc(O)c2c(c1)OC(C)(C)c1ccc(C)cc1-2` ? 2.57

Which Stability in AB White, 21-25° C. (content by LCMSMS) is listed for CCCCCc1cc2c(c(O)c1C(=O)O)[C@@H]1C=C(C)CC[C@H]1C(C)(C)O2 [D9 THCA, delta-9-tetrahydrocannabinolic acid] ? 0.873

Which Stability in AB White, 21-25° C. (content by LCMSMS) is listed for CCCCCc1cc(O)c2c(c1)OC(C)(CCC=C(C)C)C=C2 (stereo not drawn) ? 0.294

Which Stability in AB White, 21-25° C. (content by LCMSMS) is listed for `C=C(C)[C@@H]1CCC(C)=C[C@H]1c1c(O)cc(CCC)cc1O` ? 0.143

Which Stability in AB White, 21-25° C. (content by LCMSMS) is listed for `CCCCCc1cc(O)c(C/C=C(\C)CCC=C(C)C)c(O)c1` ? 4.46

* * *

test: Stability of cannabinoid and Vitamin E components of Beverage 1 (AB White) stored at 8° C. and 21-25° C., LCMSMS over 570 days; type: physicochemical; conditions: beverage stored at 21-25° C., day 15
OBSERVATION TYPE: Stability in AB White, 21-25° C. (content by LCMSMS) (µg/mL)
Kindly answer with a numeric value in µg/mL, unit omitted.

| MOLECULE | MEASURED |
| --- | --- |
| CCCCCc1cc(O)c2c(c1)OC(C)(C)[C@@H]1CCC(C)=C[C@@H]21 [D9 THC, delta-9-tetrahydrocannabinol, reference compound] | 12.1 |
| CCCc1cc(O)c2c(c1)OC(C)(C)[C@@H]1CCC(C)=C[C@@H]21 [THCV, delta-9-tetrahydrocannabivarin] | 3.48 |
| CCCCCc1cc(O)c2c(c1)OC(C)(C)c1ccc(C)cc1-2 | 2.81 |

The record that follows has no Stability in AB White, 21-25° C. (content by LCMSMS) shown yet.
Which Stability in AB White, 21-25° C. (content by LCMSMS) is listed for CCCCCc1cc(O)c2c(c1)OC1(C)CCC3C1C2C3(C)C (stereo not shown) ? 0.548

* * *

Catalogue of compounds with associated Stability of Cannabinoids in AB Red
experiment: Stability of cannabinoid and Vitamin E components of Beverage 2 (AB Red) stored at 8° C. and 21-25° C., LCMSMS over 570 days; settings: 8° C., 22 days
Kindly answer with a numeric value in µg/mL, unit omitted.

Would you please look over these solved cases?
| COMPOUND | MEASURED |
| --- | --- |
| CCCCCc1cc(O)c(C/C=C(\C)CCC=C(C)C)c(O)c1 | 4.70 |
| CCCCCc1cc2c(c(O)c1C(=O)O)[C@@H]1C=C(C)CC[C@H]1C(C)(C)O2 [D9 THCA, delta-9-tetrahydrocannabinolic acid] | 1.34 |
| CCCCCc1cc(O)c2c(c1)OC(C)(CCC=C(C)C)C=C2 (stereo not drawn) | 0.287 |
| CCCCCc1cc(O)c2c(c1)OC1(C)CCC3C1C2C3(C)C (stereo not drawn) | 0.495 |
| C=C(C)[C@@H]1CCC(C)=C[C@H]1c1c(O)cc(CCC)cc1O | 0.200 |
| CCCCCc1cc(O)c2c(c1)OC(C)(C)c1ccc(C)cc1-2 | 2.73 |
| C=C(C)[C@@H]1CCC(C)=C[C@H]1c1c(O)cc(CCCCC)c(C(=O)O)c1O | 1.70 |
| CCCCCc1cc(O)c2c(c1)OC(C)(C)[C@@H]1CCC(C)=C[C@@H]21 [D9 THC, delta-9-tetrahydrocannabinol, reference compound] | 12.7 |

The record that follows has no Stability of Cannabinoids in AB Red shown yet.
Which Stability of Cannabinoids in AB Red is listed for CCCc1cc(O)c2c(c1)OC(C)(C)[C@@H]1CCC(C)=C[C@@H]21 [THCV, delta-9-tetrahydrocannabivarin] ? 3.22

* * *

Catalogue of molecules with associated Stability in AB White, 21-25° C. (content by LCMSMS)
test: Stability of cannabinoid and Vitamin E components of Beverage 1 (AB White) stored at 8° C. and 21-25° C., LCMSMS over 570 days; assay type: physicochemical; settings: beverage stored at 21-25° C., day 22
Kindly answer with a numeric value in µg/mL, unit omitted.

| MOLECULE | READOUT UNIT | MEASURED |
| --- | --- | --- |
| C=C(C)[C@@H]1CCC(C)=C[C@H]1c1c(O)cc(CCC)cc1O | µg/mL | 0.148 |
| CCCCCc1cc(O)c(C/C=C(\C)CCC=C(C)C)c(O)c1 | µg/mL | 4.68 |
| CCCCCc1cc(O)c2c(c1)OC(C)(CCC=C(C)C)C=C2 (stereo not drawn) | µg/mL | 0.322 |
| CCCCCc1cc(O)c2c(c1)OC(C)(C)c1ccc(C)cc1-2 | µg/mL | 2.69 |

Which Stability in AB White, 21-25° C. (content by LCMSMS) is listed for CCCc1cc(O)c2c(c1)OC(C)(C)[C@@H]1CCC(C)=C[C@@H]21 [THCV, delta-9-tetrahydrocannabivarin] ? 3.52

Which Stability in AB White, 21-25° C. (content by LCMSMS) is listed for CCCCCc1cc2c(c(O)c1C(=O)O)[C@@H]1C=C(C)CC[C@H]1C(C)(C)O2 [D9 THCA, delta-9-tetrahydrocannabinolic acid] ? 0.947

Which Stability in AB White, 21-25° C. (content by LCMSMS) is listed for CCCCCc1cc(O)c2c(c1)OC1(C)CCC3C1C2C3(C)C (stereo not drawn) ? 0.547

Which Stability in AB White, 21-25° C. (content by LCMSMS) is listed for `C=C(C)[C@@H]1CCC(C)=C[C@H]1c1c(O)cc(CCCCC)c(C(=O)O)c1O` ? 1.70

Which Stability in AB White, 21-25° C. (content by LCMSMS) is listed for CCCCCc1cc(O)c2c(c1)OC(C)(C)[C@@H]1CCC(C)=C[C@@H]21 [D9 THC, delta-9-tetrahydrocannabinol, reference compound] ? 11.9

* * *

experiment: Stability of cannabinoid and Vitamin E components of Beverage 2 (AB Red) stored at 8° C. and 21-25° C., LCMSMS over 570 days; details: 21-25° C., 390 days
OBSERVATION TYPE: Stability of Cannabinoids in AB Red (µg/mL)
Kindly answer with a numeric value in µg/mL, unit omitted.

Would you please look over these solved cases?
| COMPOUND | Stability of Cannabinoids in AB Red (µg/mL) |
| --- | --- |
| CCCCCc1cc(O)c2c(c1)OC1(C)CCC3C1C2C3(C)C (centres unmarked) | 0.49 |
| CCCCCc1cc2c(c(O)c1C(=O)O)[C@@H]1C=C(C)CC[C@H]1C(C)(C)O2 [D9 THCA, delta-9-tetrahydrocannabinolic acid] | 1.26 |
| CCCc1cc(O)c2c(c1)OC(C)(C)[C@@H]1CCC(C)=C[C@@H]21 [THCV, delta-9-tetrahydrocannabivarin] | 3.04 |
| CCCCCc1cc(O)c2c(c1)OC(C)(CCC=C(C)C)C=C2 (centres unmarked) | 0.28 |

Which Stability of Cannabinoids in AB Red is listed for `C=C(C)[C@@H]1CCC(C)=C[C@H]1c1c(O)cc(CCC)cc1O` ? 0.19

* * *

experiment: Stability of cannabinoid and Vitamin E components of Beverage 1 (AB White) stored at 8° C. and 21-25° C., LCMSMS over 570 days; format: physicochemical; details: beverage stored at 21-25° C., day 9
Catalogue of molecules with associated Stability in AB White, 21-25° C. (content by LCMSMS)
Kindly answer with a numeric value in µg/mL, unit omitted.

Would you please look over these solved cases?
| MOLECULE | MEASURED |
| --- | --- |
| C=C(C)[C@@H]1CCC(C)=C[C@H]1c1c(O)cc(CCC)cc1O | 0.148 |
| CCCCCc1cc2c(c(O)c1C(=O)O)[C@@H]1C=C(C)CC[C@H]1C(C)(C)O2 [D9 THCA, delta-9-tetrahydrocannabinolic acid] | 0.926 |
| C=C(C)[C@@H]1CCC(C)=C[C@H]1c1c(O)cc(CCCCC)c(C(=O)O)c1O | 1.74 |
| CCCCCc1cc(O)c2c(c1)OC1(C)CCC3C1C2C3(C)C (stereo not drawn) | 0.535 |
| CCCCCc1cc(O)c(C/C=C(\C)CCC=C(C)C)c(O)c1 | 4.79 |

Which Stability in AB White, 21-25° C. (content by LCMSMS) is listed for `CCCCCc1cc(O)c2c(c1)OC(C)(C)c1ccc(C)cc1-2` ? 2.78

Which Stability in AB White, 21-25° C. (content by LCMSMS) is listed for CCCCCc1cc(O)c2c(c1)OC(C)(C)[C@@H]1CCC(C)=C[C@@H]21 [D9 THC, delta-9-tetrahydrocannabinol, reference compound] ? 11.8

Which Stability in AB White, 21-25° C. (content by LCMSMS) is listed for CCCc1cc(O)c2c(c1)OC(C)(C)[C@@H]1CCC(C)=C[C@@H]21 [THCV, delta-9-tetrahydrocannabivarin] ? 3.55

Which Stability in AB White, 21-25° C. (content by LCMSMS) is listed for CCCCCc1cc(O)c2c(c1)OC(C)(CCC=C(C)C)C=C2 (stereo not drawn) ? 0.307
